- Test system: six V600E BRAF melanoma cell lines
- assay_protocol: Screening of recombinant RTK ligands for ability to confer resistance to BRAFi (PLX4720) or MEKi (PD184352) (Table 4)
- Type: cell-based, human
- Set-up: scale not given here
- details: A2058, PD184352 - 1 uM, ligand 6.25 ng/ml
property: ability of recombinant RTK ligand to confer resistance
Give bare numbers.

BDNF (protein, UniProt P23560 19-247, looked up) Neurotrophic factor BDNF …: APMKEANIRGQGGLAYPGVRTHGTLESVNGPKAGSRGLTSLADTFEHVIEELLDEDQKVRPNEENNKDADLYTSRVMLSSQVPLEPPLLFLLEEYKNYLDAANMSMRVRRHSDPARRGELSVCDSISEWVTAADKKTAVDMSGGTVTVLEKVPVSKGQLKQYFYETKCNPMGYTKEGCRGIDKRHWNSQCRTTQSYVRALTMDSKKRIGWRFIRIDTSCVCTLTIKRGR : 0.94

Now consider the entry below.
Fill in: ability of recombinant RTK ligand to confer resistance of flt-3 ligand (FL) (protein, UniProt P49771 27-235, looked up) Fms-related tyrosine kinase 3 …: TQDCSFQHSPISSDFAVKIRELSDYLLQDYPVTVASNLQDEELCGGLWRLVLAQRWMERLKTVAGSKMQGLLERVNTEIHFVTKCAFQPPPSCLRFVQTNISRLLQETSEQLVALKPWITRQNFSRCLELQCQPDSSTLPPPWSPRPLEATAPTAPQPPLLLLLLLPVGLLLLAAAWCLHWQRTRRRTPRPGEQVPPVPSPQDLLLVEH is ___
1.00
